Cited source for all entries: patent US20230083243A1

- experimental-system: T1, human Protein S (human, UniProt P07225 42-676)
- T1 sequence: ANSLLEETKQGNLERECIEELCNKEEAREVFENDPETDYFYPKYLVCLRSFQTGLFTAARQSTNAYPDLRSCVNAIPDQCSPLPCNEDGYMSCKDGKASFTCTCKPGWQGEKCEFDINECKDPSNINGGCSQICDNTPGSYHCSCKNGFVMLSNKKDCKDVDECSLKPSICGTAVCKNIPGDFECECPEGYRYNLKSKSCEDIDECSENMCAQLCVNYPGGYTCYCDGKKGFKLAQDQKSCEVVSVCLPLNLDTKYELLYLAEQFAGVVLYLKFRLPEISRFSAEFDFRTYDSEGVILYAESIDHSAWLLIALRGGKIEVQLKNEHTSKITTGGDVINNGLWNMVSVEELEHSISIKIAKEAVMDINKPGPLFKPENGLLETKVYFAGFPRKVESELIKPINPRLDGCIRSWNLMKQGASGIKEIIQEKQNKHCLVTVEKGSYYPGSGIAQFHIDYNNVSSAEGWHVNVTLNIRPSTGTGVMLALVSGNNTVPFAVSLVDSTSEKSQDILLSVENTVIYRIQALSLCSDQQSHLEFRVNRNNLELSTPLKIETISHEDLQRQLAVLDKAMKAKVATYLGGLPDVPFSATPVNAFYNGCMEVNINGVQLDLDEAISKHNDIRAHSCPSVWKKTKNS
- test: cell-based or functional assay
measured-attribute: IC50 TFPI (µM)
Give your result in µM as a bare value.

binder	IC50 TFPI, µM
Antibody 15 (antibody, V domains shown, Human variable region with rat Fc) VH: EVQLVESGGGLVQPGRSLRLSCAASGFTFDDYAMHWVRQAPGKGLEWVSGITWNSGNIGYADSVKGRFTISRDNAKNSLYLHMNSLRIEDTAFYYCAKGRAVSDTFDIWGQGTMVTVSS VL: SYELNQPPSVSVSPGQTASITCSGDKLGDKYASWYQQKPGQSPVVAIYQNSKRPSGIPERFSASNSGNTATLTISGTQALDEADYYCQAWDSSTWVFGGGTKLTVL	0.0773

We now examine a further binder.
Provide measured IC50 TFPI value, entry: Antibody 36 (antibody, V domains shown, Human variable region with rat Fc) VH: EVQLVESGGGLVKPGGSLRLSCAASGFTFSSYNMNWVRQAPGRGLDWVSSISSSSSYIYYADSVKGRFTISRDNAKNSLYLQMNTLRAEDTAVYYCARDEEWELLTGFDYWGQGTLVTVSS VL: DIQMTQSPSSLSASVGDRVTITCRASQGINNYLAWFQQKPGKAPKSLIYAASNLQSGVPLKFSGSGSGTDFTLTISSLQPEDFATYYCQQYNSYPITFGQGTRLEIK
0.00605
